# TESTED_SYSTEM: T1, human catalase (Homo sapiens, UniProt P04040)
# T1 sequence (P04040 2-527 limits assumed): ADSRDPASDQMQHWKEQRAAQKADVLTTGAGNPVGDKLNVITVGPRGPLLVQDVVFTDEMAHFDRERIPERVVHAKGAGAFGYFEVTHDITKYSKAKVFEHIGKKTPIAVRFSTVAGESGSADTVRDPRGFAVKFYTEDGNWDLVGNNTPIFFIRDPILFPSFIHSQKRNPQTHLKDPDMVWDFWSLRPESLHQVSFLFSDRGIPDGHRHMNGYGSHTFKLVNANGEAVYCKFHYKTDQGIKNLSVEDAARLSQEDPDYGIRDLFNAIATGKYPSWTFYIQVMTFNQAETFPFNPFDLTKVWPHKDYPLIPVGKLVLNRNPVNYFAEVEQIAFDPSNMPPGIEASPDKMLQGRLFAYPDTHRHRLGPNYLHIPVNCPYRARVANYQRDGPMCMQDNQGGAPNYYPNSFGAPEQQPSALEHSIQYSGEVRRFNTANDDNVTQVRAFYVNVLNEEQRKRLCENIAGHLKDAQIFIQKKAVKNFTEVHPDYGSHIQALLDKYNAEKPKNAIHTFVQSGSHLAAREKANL
# MEASUREMENT_PROTOCOL: Check for inhibition (neutralization) of catalase, expressed as ROS-dependent apoptosis induction in cell culture system
# Format: cell-based
# Parameters: catalase-neutralizing single domain VHH fragments only neutralize the membranous catalase of tumor cells; endogenous in cells; host or cells: MKN-45 human gastric carcinoma cells
READOUT: neutralization (inhibition) of human catalase

- aCATcb0973: single domain VHH fragment binding to human catalase, but not neutralizing; SEQ ID NO: 11 (protein, catalase binding) VHH: MAEVQLVESGGGLVQPGGSLRLSCAVSGFIFNTYSMRWGRQAPGKGLEWVSSISTGGYSTYADSVKGRFTISRDNAKNLVYLQMNSLKPEDTAVYYCGWGAFVRGERPQGQGTQVTVSSKKKHHHHHH: do not neutralize it
- aCATcb0975: single domain VHH fragment binding to human catalase, but not neutralizing; SEQ ID NO: 13 (protein, catalase binding) VHH: MAQVQLVESGGGLVQPGGSLRLSCAASASIFSIYVMAWYRQAPGKQRELVATVTSGGATNYANSVKGRFTISRDNAKNTMDLQMNSLKPEDTAVYYCNAEDYYDYGLSRSKIYWGQGTQVTVSSKKKHHHHHH: do not neutralize it
- aCATcb0972: single domain VHH fragment that binds to and neutralizes human catalase; SEQ ID NO: 10 (protein, catalase binding) VHH: MAQVQLVESGGGLVQAGGSLRLSCAASERTFNTYGMGWFRQAPGKEREFVATISWSGDSTYYADSVKGRFTISRDNAKNTMYLQMNSLKPEDTAVYYCNANSEYGDSYWGQGTQVTVSSKKKHHHHHH: neutralize it
- aCATcb0974: single domain VHH fragment that binds to and neutralizes human catalase; SEQ ID NO: 12 (protein, catalase binding) VHH: MAQVQLVESGGGLVQPGGSLRLSCAASGSIFSIASMGWYRQAPGKQRDLVATITSDGSTKYADSVKGRFTISRDNAKNTMYLQMNSVKPEDAAVYYCNADADDLEPGSYDYDYWGQGTQVTVSSKKKHHHHHH: neutralize it
